# Tested on: house flies
# assayName: Campbell's turn table oil spray test on house fly adults (Experimental Example 1)
# Assay type: in vivo
# setupConditions: Musca domestica, 24 h, oil spray 5 ml, 10 min exposure, mortality after 1 day, read-out: LC50 (50 percent lethal concentration)
log10 LC50 reference
// do not treat as linear: log10 of LC50, unit µg/mL

Worked examples, 4 compounds total:
Output log10 LC50 of C=CCc1cc(C)c(COC(=O)C2C(C=C(C)C=C)C2(C)C)c(C)c1 (centres unmarked)
2.59

Output log10 LC50 of C=CC=CC1C(C(=O)OC(C#N)c2cccc(Oc3cccc(C)c3)c2)C1(C)C (centres unmarked)
1.78

Output log10 LC50 of C=CC=CC1C(C(=O)OCC=C(Cl)Cc2ccccc2)C1(C)C (centres unmarked)
2.23

Output log10 LC50 of CC(C)=CC1C(C(=O)OCc2ccc(Oc3ccccc3)o2)C1(C)C (centres unmarked) [5-Phenoxyfurfuryl chrysanthemate, reference compound]
1.93

New cases:
Output log10 LC50 of C=CCc1cc(C)c(COC(=O)C2C(C=C(C)C)C2(C)C)c(C)c1 (centres unmarked) [reference compound]
2.81

Output log10 LC50 of C#CCc1ccc(COC(=O)C2C(C=C(C)C=C)C2(C)C)cc1 (centres unmarked)
2.70

Output log10 LC50 of C=CC(C)=CC1C(C(=O)OCc2cccc(Cc3ccccc3)c2)C1(C)C (centres unmarked)
2.04

Output log10 LC50 of C=CCc1cc(C)c(COC(=O)C2C(C=C(C)C(=O)OC)C2(C)C)c(C)c1 (centres unmarked) [2,6-Dimethyl-4-allylbenzyl pyrethrate, reference compound]
3.15

Output log10 LC50 of C=CC(C)=CC1C(C(=O)OCc2ccc(Oc3ccccc3)o2)C1(C)C (centres unmarked)
1.67

Output log10 LC50 of C=CC=CC1C(C(=O)OCc2ccc(Oc3ccccc3)o2)C1(C)C (centres unmarked)
1.61

Output log10 LC50 of C=CC=CC1C(C(=O)OCc2cccc(Cc3ccccc3)c2)C1(C)C (centres unmarked)
1.95
